Reference for the values: the supplement of paper PMC6331611

# Tested on: Salmonella enterica serovar Typhimurium SL1344
# assaySummary: normalized growth (OD600, IQM-normalized) in LPM (fraction of plate interquartile mean); higher = more bacterial growth (less inhibition)
# particulars: LPM pH 5.8; 10 µM; 16 h
Over roughly 1,600 compounds, “normalized growth (OD600, IQM-normalized) in LPM” has its median near 1; the lowest 2% begin near 0.014. The sample holds the lowest values, similar compounds and a random draw of the others, so the mix is not that of the screen.
Would you kindly list normalized growth for each of these compounds?

- compound: "CC(=O)[O][Hg][c]1ccccc1"
  assayReadout: "normalized growth"
  reportedResult: 0.0096
- compound: "O=[N+]([O-])C(Br)(CO)CO"
  assayReadout: "normalized growth"
  reportedResult: 0.786
- compound: "CC(C)=CC1C(C(=O)OCc2cccc(Oc3ccccc3)c2)C1(C)C (stereo unspecified)"
  assayReadout: "normalized growth"
  reportedResult: 0.894
- compound: "CCn1cc(C(=O)O)c(=O)c2cc3c(cc21)OCO3"
  assayReadout: "normalized growth"
  reportedResult: 0.00952
- compound: "Oc1noc2c1CCNC2"
  assayReadout: "normalized growth"
  reportedResult: 0.948
- compound: "O=[N+]([O-])O[C@@H]1CO[C@H]2[C@@H]1OC[C@@H]2O"
  assayReadout: "normalized growth"
  reportedResult: 1.11
- compound: "Oc1cc(Cl)ccc1Oc1ccc(Cl)cc1Cl"
  assayReadout: "normalized growth"
  reportedResult: 0.00811
- compound: "O=C1CCO1"
  assayReadout: "normalized growth"
  reportedResult: 0.959

Report normalized growth for each item below.
1. CC(C)C[C@H]1C(=O)N2CCC[C@H]2[C@]2(O)O[C@](NC(=O)[C@@H]3C=C4c5cccc6[nH]c(Br)c(c56)C[C@H]4N(C)C3)(C(C)C)C(=O)N12
2. Cc1ccc(O)cc1.Cc1cccc(O)c1.Cc1ccccc1O
3. Oc1ccc(Cl)cc1Cc1cc(Cl)ccc1O
4. CC(C)(O)C(Cl)(Cl)Cl
5. Oc1ccc(Cl)cc1
6. CC[C@H]1CN2CC[C@H]1C[C@@H]2[C@@H](O)c1ccnc2ccc(OC)cc12

0.947
0.955
0.895
1
0.971
0.912

Report normalized growth for each item below.
1. C[N+]12CCC(CC1)C(OC(=O)C(O)(c1ccccc1)c1ccccc1)C2 (stereo unspecified)
2. NC(=O)C[S+]([O-])C(c1ccccc1)c1ccccc1 (stereo unspecified)

1: 1.05; 2: 0.865
